Target: human mGluR2 (Homo sapiens)
Construct: If the GTPgammaS assay gave them: nothing
Sequence (Q14416 19-819 limits assumed): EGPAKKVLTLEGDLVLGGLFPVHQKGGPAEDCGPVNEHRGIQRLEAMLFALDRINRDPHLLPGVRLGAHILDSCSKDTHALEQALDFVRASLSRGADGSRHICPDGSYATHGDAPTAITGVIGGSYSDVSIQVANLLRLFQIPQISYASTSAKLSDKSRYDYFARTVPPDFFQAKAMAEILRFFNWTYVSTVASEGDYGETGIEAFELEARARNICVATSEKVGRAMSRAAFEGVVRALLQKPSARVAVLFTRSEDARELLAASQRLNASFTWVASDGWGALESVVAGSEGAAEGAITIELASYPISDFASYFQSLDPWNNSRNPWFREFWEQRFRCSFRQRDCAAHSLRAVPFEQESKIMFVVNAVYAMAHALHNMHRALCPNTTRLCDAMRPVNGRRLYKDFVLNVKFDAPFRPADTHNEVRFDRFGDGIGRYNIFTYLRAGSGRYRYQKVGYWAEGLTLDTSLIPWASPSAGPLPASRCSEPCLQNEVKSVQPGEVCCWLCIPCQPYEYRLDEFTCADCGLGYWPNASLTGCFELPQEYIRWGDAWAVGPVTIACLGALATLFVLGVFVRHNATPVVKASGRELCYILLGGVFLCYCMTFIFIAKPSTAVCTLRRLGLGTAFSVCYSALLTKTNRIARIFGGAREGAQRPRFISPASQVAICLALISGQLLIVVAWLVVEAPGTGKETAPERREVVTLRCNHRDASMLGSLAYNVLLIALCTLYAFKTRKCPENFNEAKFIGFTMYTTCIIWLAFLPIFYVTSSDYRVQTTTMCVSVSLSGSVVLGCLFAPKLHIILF
Test: mGluR2 allosteric activator assays described herein (FLIPR calcium mobilization in HEK 293 mGluR2/CaR cells; [35S]-GTPγS binding with CHO membranes)
Settings: potentiator / positive allosteric modulator activity at mGluR2; the patent does not say which of the two described assays (FLIPR or GTPγS)
value.type: EC50 (nM)
Entry rule: numbers only, all in nM.

Name the reported EC50 value associated with the compound "O=C1CCn2c(CN3CCC(c4ccc(F)cc4)CC3)nc3cc(F)cc1c32"
1110
